Kindly state self-cleavage for each of the entries shown.
B1: HDV Ribozyme (parent)
chain: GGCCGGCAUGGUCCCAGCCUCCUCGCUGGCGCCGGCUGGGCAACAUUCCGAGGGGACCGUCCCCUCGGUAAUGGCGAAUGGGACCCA

# Variants of: B1
# test: self-cleavage, relative activity (ratio to wild type); higher = more cleavage; co-transcriptional
# output: bare number, no unit

Enquiry: Looking for the measured self-cleavage of C32A C75U , can you help?
Return: 0.0791

Enquiry: Looking for the measured self-cleavage of A51G G55A , can you help?
Return: 0.972

Enquiry: Looking for the measured self-cleavage of C15G G74C , can you help?
Return: 0.119

Enquiry: Looking for the measured self-cleavage of C3A G17U , can you help?
Return: 0.0665

Enquiry: Looking for the measured self-cleavage of G31U G34U , can you help?
Return: 0.0791

Enquiry: Looking for the measured self-cleavage of G31A C36G , can you help?
Return: 0.233

Enquiry: Looking for the measured self-cleavage of C57A G81A , can you help?
Return: 0.339

Enquiry: Looking for the measured self-cleavage of C41U G50U , can you help?
Return: 0.933

Enquiry: Looking for the measured self-cleavage of C58A A77U , can you help?
Return: 0.78

Enquiry: Looking for the measured self-cleavage of C7U C63A , can you help?
Return: 0.751

Enquiry: Looking for the measured self-cleavage of A45G C84A , can you help?
Return: 0.587

Enquiry: Looking for the measured self-cleavage of C57U A87U , can you help?
Return: 1.01

Enquiry: Looking for the measured self-cleavage of C15A A51U , can you help?
Return: 0.573

Enquiry: Looking for the measured self-cleavage of C21U C58A , can you help?
Return: 0.136

Enquiry: Looking for the measured self-cleavage of U72C C85A , can you help?
Return: 0.633

Enquiry: Looking for the measured self-cleavage of U23A C64U , can you help?
Return: 0.935

Enquiry: Looking for the measured self-cleavage of A8G U20C , can you help?
Return: 0.217

Enquiry: Looking for the measured self-cleavage of C30A C84U , can you help?
Return: 0.13

Enquiry: Looking for the measured self-cleavage of U20C G80C , can you help?
Return: 0.106

Enquiry: Looking for the measured self-cleavage of G29U U37C , can you help?
Return: 0.208

Enquiry: Looking for the measured self-cleavage of C13G G74A , can you help?
Return: 0.0405

Enquiry: Looking for the measured self-cleavage of G40U G68A , can you help?
Return: 0.722
